Target: IRAK4 (Homo sapiens, UniProt Q9NWZ3)
Sequence (Q9NWZ3 1-460): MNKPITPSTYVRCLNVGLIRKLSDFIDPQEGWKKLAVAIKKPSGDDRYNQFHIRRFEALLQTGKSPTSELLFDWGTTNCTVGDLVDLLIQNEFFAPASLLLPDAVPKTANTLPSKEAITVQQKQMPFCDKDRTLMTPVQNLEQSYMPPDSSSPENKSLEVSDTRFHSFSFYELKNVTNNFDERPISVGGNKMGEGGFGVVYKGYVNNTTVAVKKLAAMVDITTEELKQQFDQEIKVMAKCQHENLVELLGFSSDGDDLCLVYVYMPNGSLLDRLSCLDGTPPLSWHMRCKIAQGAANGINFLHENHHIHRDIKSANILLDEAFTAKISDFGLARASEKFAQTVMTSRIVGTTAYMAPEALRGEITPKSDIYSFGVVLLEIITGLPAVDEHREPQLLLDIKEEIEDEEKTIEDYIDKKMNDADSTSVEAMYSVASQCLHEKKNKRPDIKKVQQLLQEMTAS
Assay: 2-hour 1 mM ATP IRAK4 Biochemical assay (as above, but with 100 pM IRAK4 and 1 mM ATP)
Conditions: IRAK4 MSD BIOCHEMICAL (1 mM ATP) IC50 (μM), 100 pM IRAK4, 2 hours

{"COMPOUND": "CCOc1cc2nc(C34CC(F)(C3)C4)cn2cc1NC(=O)c1cccc(C(F)F)n1", "IC50": "0.003 µM"}
{"COMPOUND": "CCOc1cc2nc(CCC(C)(C)O)cn2cc1NC(=O)c1cccc(C(F)F)n1", "IC50": "0.001 µM"}
{"COMPOUND": "CCOc1cc2nc(C(C)(C)O)cn2cc1NC(=O)c1cccc(C(F)(F)F)n1", "IC50": "0.044 µM"}
{"COMPOUND": "Cc1cc(NC(=O)c2ccn(C)n2)cn2cc(C34COC(C)(C3)C4)nc12 [Example 409, 2,2,2-trifluoroacetate]", "IC50": "0.534 µM"}
